Below, each of the binders is paired with its reported Kd value.
- System under test: T1, human PD-L1 ECD-His (human, UniProt Q9NZQ7 19-238)
- T1 construct: extracellular domain; Analyte in all SPR and BLI runs; also called hPD-L1_ECD-His; hPD-L1 ECD-His; not shown: His tag
- T1 sequence (Q9NZQ7 19-238): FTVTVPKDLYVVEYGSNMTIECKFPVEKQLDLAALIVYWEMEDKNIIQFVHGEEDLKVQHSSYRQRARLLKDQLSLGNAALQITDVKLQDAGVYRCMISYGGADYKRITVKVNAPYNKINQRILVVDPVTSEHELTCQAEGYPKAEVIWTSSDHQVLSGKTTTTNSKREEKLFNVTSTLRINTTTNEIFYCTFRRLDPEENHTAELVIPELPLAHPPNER
- Assay overview: SPR, 25 C, antibody captured by anti-human IgG Fc, hPD-L1_ECD-His analyte, 1:1 fit
Value kind: Kd (nM)

{"columns": ["Binder", "Recorded value"],
 "data": [
  ["PL6 (full-length, N297A mutant human IgG1) (antibody, V domains shown) VH: EVQLVQSGAEVKKPGSSVKVSCKASGGTFSSYTINWVRQAPGQGLEWVGKIIPILGIADYAQMFKGRVTITADKFTSTVYMELNSLRSEDTAVYYCARGGYVGYLNAFDIWGQGTMVTVSS VL: QSVVTQPPSVSGAPGQRVTISCTGSSSNIGAGYDVHWYQQLPGTAPKLLIYGNSNRPSGVPDRFSGSKSGTSASLAITGLQAEDEADYYCQSYDSSLSGGVFGGGTKLTVLG", 11.2],
  ["PL1 (full-length, N297A mutant human IgG1) (antibody, V domains shown) VH: QIQLVQSGAEVKKPGSSVKVSCKASGGTFSSYAISWVRQAPGQGLEWMGRIIPILGIANYAQKFQGRVTITAGESTSTAYMELSSLRSEDTAVYYCAREGSSGWLGVLDYWGQGTLVTVSS VL: QAVLTQPSSVSGAPGQRVTISCTGSSSNVGAGYDVHWYQQLPGTAPKLLIYGNSNRPSGVPDRFSGSKSGTSASLAITGLQAEDEADYYCQSYDSSLSGWVFGGGTKLTVLG", 15.8],
  ["PL15 (full-length, N297A mutant human IgG1) (antibody, V domains shown) VH: QVQLVQSGAEVKKPGSSVKVSCKASGGTFSSYTISWVRQAPGQGLEWMGRIIPILGIANYAQKFQGRVTITADKSTSTAYMELSSLRSEDTAVYYCARSRDGYSFGAFDIWGQGTLVTVSS VL: QSVLTQPPSVSGAPGQRVTISCTGYSSNIGAGYDVHWYQHLPGTAPKLLIYGNSNRPSGVPDRFSGSKSGTSASLAITGLQAEDEADYYCQSYDNSLSVSVFGGGTKLTVLG", 15]
]}
